This collection of values is drawn from patent US20190010203A1.

Give measured IC50 (nM), CGRP-stimulated CLR/RAMP1 cAMP assay for each item. Keep answers brief.
Molecular target: CLR/RAMP1 receptor (UniProt Q16602 23-461; O60894 27-148, limits assumed)
Sequence (Q16602 23-461 limits assumed, chain 1 of 2): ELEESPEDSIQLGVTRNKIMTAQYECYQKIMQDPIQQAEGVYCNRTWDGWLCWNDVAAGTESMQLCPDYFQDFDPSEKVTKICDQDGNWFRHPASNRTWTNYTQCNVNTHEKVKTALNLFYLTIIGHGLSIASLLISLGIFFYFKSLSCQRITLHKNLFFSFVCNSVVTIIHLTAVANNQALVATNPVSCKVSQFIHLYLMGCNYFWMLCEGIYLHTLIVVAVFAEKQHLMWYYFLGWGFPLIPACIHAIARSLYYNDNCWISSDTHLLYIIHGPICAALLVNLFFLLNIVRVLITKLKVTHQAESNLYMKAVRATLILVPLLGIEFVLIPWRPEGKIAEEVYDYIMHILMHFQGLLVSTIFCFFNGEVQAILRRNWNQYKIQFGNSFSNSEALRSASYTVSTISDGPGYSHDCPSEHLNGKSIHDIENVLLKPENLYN
Sequence (O60894 27-148 limits assumed, chain 2 of 2): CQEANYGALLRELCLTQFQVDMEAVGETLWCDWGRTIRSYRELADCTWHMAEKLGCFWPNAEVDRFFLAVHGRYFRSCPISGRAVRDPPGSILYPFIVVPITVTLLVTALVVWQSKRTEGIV
Assay: cell-based or functional assay
Non-standard residues stand in square brackets, D forms with d. No end group written: not given here. *: point of attachment. Palmitoyl = CCCCCCCCCCCCCCCC(=O)*; AEEA = NCCOCCOCC(=O)O
Respond with the bare value in nM.

Challenge: What measured IC50 (nM), CGRP-stimulated CLR/RAMP1 cAMP assay goes with [AEEA]K(Palmitoyl)VQKLAHQIYQFTDKDSAPVDPSSPHSY-NH2 [SEQ ID NO: 112] ?
Response given: 1.8

Challenge: What measured IC50 (nM), CGRP-stimulated CLR/RAMP1 cAMP assay goes with [AEEA]K(Palmitoyl)VQKLAHQIYSAPVDPSSPHSY-NH2 [SEQ ID NO: 114] ?
Response given: 4.8

Challenge: What measured IC50 (nM), CGRP-stimulated CLR/RAMP1 cAMP assay goes with Palmitoyl-KVQKLAHQIYQFTDKSAPVDPSSPHSY-NH2 [SEQ ID NO: 125] ?
Response given: 7

Challenge: What measured IC50 (nM), CGRP-stimulated CLR/RAMP1 cAMP assay goes with Palmitoyl-KVQKLAHQIYSAPVDPSSPHSY-NH2 [SEQ ID NO: 122] ?
Response given: 7.3
